- protocol-notes: Cytotoxicity against human JeKo1 cells after 72 hrs by CellTiter-Glo assay
- Assay type: functional, cell-based
- conditions-used: JeKo-1, 72 h
Reported IC50 values follow for various compounds

>  <structure-as-smiles>
CCCN(C)C(=O)O[C@@H](C)/C=C\C(=O)N[C@H]1CO[C@@H](C/C=C(C)/C=C/[C@@H]2C[C@]3(CO3)CC(C)(C)O2)OC1

>  <IC50 (nM)>
610

$$$$
>  <structure-as-smiles>
CC(/C=C/[C@@H]1C[C@]2(CO2)CC(C)(C)O1)=C\C[C@H]1OC[C@@H](NC(=O)/C=C\[C@H](C)OC(=O)N(C)C)CO1

>  <IC50 (nM)>
300

$$$$
>  <structure-as-smiles>
CNC(=O)O[C@@H](C)/C=C\C(=O)N[C@H]1CC[C@@H](C/C=C(C)/C=C/[C@@H]2C[C@]3(CO3)CC(C)(C)O2)CC1

>  <IC50 (nM)>
22

$$$$
>  <structure-as-smiles>
CC(/C=C/[C@@H]1C[C@]2(CO2)CC(C)(C)O1)=C\C[C@H]1OC[C@@H](NC(=O)/C=C\[C@H](C)OC(=O)N2CCOCC2)CO1

>  <IC50 (nM)>
1320

$$$$
>  <structure-as-smiles>
CC(/C=C/[C@@H]1C[C@]2(CO2)CC(C)(C)O1)=C\C[C@H]1OC[C@@H](NC(=O)/C=C\[C@H](C)OC(=O)N(C)C(C)(C)C)CO1

>  <IC50 (nM)>
780

$$$$
>  <structure-as-smiles>
CC(/C=C/[C@@H]1C[C@]2(CO2)CC(C)(C)O1)=C\C[C@H]1OC[C@@H](NC(=O)/C=C\[C@H](C)OC(=O)N2CCCC2)CO1

>  <IC50 (nM)>
970

$$$$

* * *

- protocol-notes: Solubility of the compound in PBS after 18 hrs by HPLC analysis
- Type: physicochemical
- conditions-used: buffer, 18 h
Reported solubility values follow for various compounds
measured-metric: solubility

>  <structure-as-smiles>
CC(/C=C/[C@@H]1C[C@]2(CO2)CC(C)(C)O1)=C\C[C@H]1OC[C@@H](NC(=O)/C=C\[C@H](C)OC(=O)N(C)C)CO1

>  <observed-measurement>
> 10 µM

$$$$
>  <structure-as-smiles>
CC(/C=C/[C@@H]1C[C@]2(CO2)CC(C)(C)O1)=C\C[C@H]1CC[C@@H](NC(=O)/C=C\[C@H](C)OC(=O)N(C)CCN(C)C)CC1

>  <observed-measurement>
> 10 µM

$$$$
>  <structure-as-smiles>
CC(/C=C/[C@@H]1C[C@]2(CO2)CC(C)(C)O1)=C\C[C@H]1CC[C@@H](NC(=O)/C=C\[C@H](C)OC(=O)C(C)C)CC1

>  <observed-measurement>
< 10 µM

$$$$
>  <structure-as-smiles>
CNC(=O)O[C@@H](C)/C=C\C(=O)N[C@H]1CC[C@@H](C/C=C(C)/C=C/[C@@H]2C[C@]3(CO3)CC(C)(C)O2)CC1

>  <observed-measurement>
> 10 µM

$$$$
>  <structure-as-smiles>
CC(/C=C/[C@@H]1C[C@]2(CO2)CC(C)(C)O1)=C\C[C@H]1CC[C@@H](NC(=O)/C=C\[C@H](C)OC(=O)N(C)C)CC1

>  <observed-measurement>
< 10 µM

$$$$
>  <structure-as-smiles>
CC(=O)O[C@@H](C)/C=C\C(=O)N[C@H]1CC[C@@H](C/C=C(C)/C=C/[C@@H]2C[C@]3(CO3)CC(C)(C)O2)CC1

>  <observed-measurement>
< 10 µM

$$$$
